# System: Nanoluciferase (engineered Oplophorus gracilirostris luciferase)
# experimentSummary: Primary Nanoluciferase (NLuc) qHTS assay for identification of artifact compounds. (AID 1845222);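 also: NLuc secreted into diluted conditioned medium of S16 cells; 0% = DMSO and -100% = no enzyme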
# reportedConditions: NLuc-conditioned medium, Nano-Glo luminescence, 5 min; series mostly up to 54.1 µM
Calls of active or inactive are those of the source. Calls follow the shape of the dose curve; as a rule, active = well fitted inhibition curve with a large enough effect; inconclusive = small, poorly fitted or top-dose-only effect; inactive = flat fitted curve, though single readings scatter.
reportedProperty: activity, negative = inhibition

>>> endpointvalue("CC1(C)CC[C@]2(C(=O)O[C@@H]3O[C@H](CO)[C@@H](O)[C@H](O)[C@H]3O)CC[C@]3(C)C(=CCC4[C@@]5(C)CC[C@H](OC6OC(C(=O)O)C(OC7OC(CO)C(O)C(O)C7O)C(O)C6O)C(C)(C)C5CC[C@]43C)C2C1 (stereo not given in full)")
"0% [at 11.6 µM] (inactive)"
>>> endpointvalue("CC1C2=CC(=O)OC2(O)CC2C1C(O)CC1C(C)(CO)CCCC21C (stereo not given)")
"inactive"
>>> endpointvalue("CN1CCN(C2=Nc3ccccc3Nc3ccc(O)cc32)CC1")
"inactive"
>>> endpointvalue("CC1=C2CC(C)(C)CC2C(O)C2=C(C1)C(=O)OC2O (stereo not given)")
"inactive"
>>> endpointvalue("C=C(C)C1CCC2(C(=O)OC3OC(COC4OC(CO)C(O)C(O)C4O)C(OC4OC(C)C(O)C(O)C4O)C(O)C3O)CCC3(C(=O)O)C(CCC4C5(C)CCC(=O)C(C)(C)C5CCC43C)C12 (stereo not given)")
"3.95% [at 11.6 µM] (inactive)"

###

# Test system: C33A
# experimentSummary: Primary qHTS to identify gynecologic anti-cancer compounds using libraries of approved drugs and bioactive compounds (AID 1345084); also: % is scaled to controls: 0 for no effect and ±100 for the full control effect; nearly all actives have a fitted effect of over 55% in size
# reportedConditions: Gynecologic cancer cell panel viability, ATPlite luminescence, 48 h; series mostly up to 57.5 µM
Inconclusive results are not listed. Calls of active or inactive are those of the source. The call rests on the fitted dose curve; in most records, active means well fitted cell-killing curve with a large enough effect; inconclusive means small, poorly fitted or top-dose-only effect, or effect the other way; inactive means flat fitted curve, though single readings scatter.
reportedProperty: activity change, negative = cytotoxicity

>>> endpointvalue("Fc1ccc(-c2c3cccc(C(F)(F)F)c3nn2Cc2ccc(F)cc2Cl)cc1")
"inactive"
>>> endpointvalue("CC1CCC2(C)CCC3(C)C(=CCC4C5(C)CCC(O)C(C)(C(=O)O)C5CCC43C)C2C1C (stereo not given)")
"inactive"
>>> endpointvalue("C/C=C/C=C/C=C/C(=O)N(C)C(C(=O)NC(C)C(=O)N1CCCC1C(N)=O)C(C)C (stereo not given)")
"inactive"
>>> endpointvalue("C[C@@H]1C[C@H]2OC(=O)[C@@]3(C)CCC[C@](C)(C23)[C@@]1(O)CCC1=CC(=O)OC1O (stereo not given in full)")
"inactive"
>>> endpointvalue("C/C=C/C=C/[C@@H]1O[C@](O)([C@H](CC)C(=O)NC/C=C/C=C(\\C)[C@@H](OC)[C@@H](C)[C@@H]2O[C@H](/C=C/C=C/C=C(\\C)C(=O)c3c(O)ccn(C)c3=O)[C@H](O)[C@@H]2O)[C@H](O)[C@H](O)C1(C)C")
"0.106% [at 11.6 µM] (inactive)"

###

# Tested on: NIH3T3
# experimentSummary: qHTS assay to identify novel small-molecules to repurpose for Merkel cell carcinoma treatment (AID 1296009); also: nearly all actives have a fitted effect of over 60% in size
# reportedConditions: MCC and control cell lines, CellTiter-Glo viability, 72 h; at 44.8 µM (top of the series) unless noted
# From the text: MCC is a rare and aggressive neuroendocrine skin cancer with limited treatment options. Approximately 80% of MCCs have the Merkel cell polyomavirus (MCPyV) DNA integrated into the host genome (virus-positive: VP-MCC) and viral oncogenes drive oncogenesis. The remaining MCCs are virus-negative (VN-MCC) and are caused by UV mutagenesis. […] Using cell viability as a readout (CellTiter-Glo assay) we found both overlapping and distinct drugs that can be repurposed for the treatment of VP-MCC and VN-MCC. […]
Records with an inconclusive call do not appear. Calls of active or inactive are those of the source. Calls come from the whole dose curve; as a rule, active = well fitted inhibition curve with a large enough effect; inconclusive = small, poorly fitted or top-dose-only effect; inactive = flat fitted curve, though single readings scatter.
reportedProperty: outcome

>>> endpointvalue("CC(=O)NCC1CN(c2ccc(-c3ccc(CNCc4cn[nH]n4)cc3)c(F)c2)C(=O)O1 (centres undefined)")
"inactive"
>>> endpointvalue("C/C(=C\\CCC(C)C1CC(O)C2(C)C3CCC4C(C)(C)C(OC5OCC(O)C(O)C5O)CCC45CC35CC(O)C12C)C(=O)O (centres undefined)")
"inactive [at 17.4 µM]"
>>> endpointvalue("Cc1cn(-c2cc(NC(=O)c3ccc(C)c(Nc4nccc(-c5cnccn5)n4)c3)cc(C(F)(F)F)c2)cn1")
"inactive"
>>> endpointvalue("COc1cnc(-n2cnc(C)n2)c2[nH]cc(C(=O)C(=O)N3CCN(C(=O)c4ccccc4)CC3)c12")
"inactive"
>>> endpointvalue("CC(C)=C1CC2C(CCC2(C)O)C(C)(O)CC1=O (centres undefined)")
"inactive"
>>> endpointvalue("CC1CCC2(C(=O)O)CCC3(C)C(=CCC4C5(C)C[C@@H](O)[C@@H](O)C(C)(CO)C5CCC43C)C2C1(C)O (some centres undefined)")
"inactive [at 17.4 µM]"
>>> endpointvalue("C=C(C(=O)O)C1CC(O)C2(C)CCCC(C)(O)C2C1 (centres undefined)")
"inactive"
>>> endpointvalue("CC1CCC2(C(=O)O)CCC3(C)C(=CCC4C5(C)CCC(O)C(C)(C(=O)O)C5CCC43C)C2C1(C)O (centres undefined)")
"inactive [at 17.4 µM]"
>>> endpointvalue("CC1=C(CO)C2(C)CCCC(C)(C)C2C(O)C1O (centres undefined)")
"inactive"
